assay: Growth inhibition of human HCT15 cells assessed as cell growth at 10^-5 M after 48 hrs by sulforhodamine B assay; type: functional; conditions: HCT-15, 48 h, read-out: Activity
Reported Endpoint: growth at 10 µM
Kindly write the number and append the unit.

Value lookup for growth at 10 µM; key = O=C1/C(=C/c2ccc(Cl)cc2Cl)CN(S(=O)(=O)c2ccccc2)C/C1=C\c1ccc(Cl)cc1Cl -23%

Value lookup for growth at 10 µM; key = Cc1ccc(S(=O)(=O)N2C/C(=C\c3c(Cl)cccc3Cl)C(=O)/C(=C/c3c(Cl)cccc3Cl)C2)cc1 80.7%

Value lookup for growth at 10 µM; key = O=C1/C(=C/c2c(Cl)cccc2Cl)CN(S(=O)(=O)c2ccccc2)C/C1=C\c1c(Cl)cccc1Cl 62%

Value lookup for growth at 10 µM; key = Cc1ccc(S(=O)(=O)N2C/C(=C\c3cc(F)cc(F)c3)C(=O)/C(=C/c3cc(F)cc(F)c3)C2)cc1 -35%
